The origin of these recorded values is patent EP0532706B1.

Assay: in vivo
Assay type: in vivo, guinea pig
Details: guinea pig, in vivo, 40 mg/kg/day
Method: Blood was drawn by ear puncture from the anesthetized animals and collected into EDTA containing tubes at the beginning, after 10 days, and after 3 weeks, when the animals were sacrificed. Plasma was stored at -80°C until analyzed. Lp(a) was detected in the plasma of the guinea pigs by use of SDS-polyacrylamide gels according to Neville ((1971) J. Biol. Chem. 246:6328-6334) followed by Western blotting according to Beisiegel, et al. ((1982) J. Biol. Chem. 257:13150-13156). […]
experimental-endpoint: concentration at 840 h (µg/mL)
Answers are plain numbers, in µg/mL.

Look up concentration at 840 h: O=C1O[C@H]([C@@H](O)CO)C(O)=C1O [ascorbate] 5.03
